Reference source for all entries: patent US20100129800A1

# Tested on: duplex structure of DNA
# experimental_details: Melting experiments (DNA-duplex stabilization)
# Type: physicochemical
# details: 1 M NaCl, 10 mM sodium phosphate buffer of pH=7; 260 nm; 1° C./min
Ends that are not written are not given here. Qut = N-(1,3-dihydroxybutan-2-yl)-10H-indolo[3,2-d]quinoline-11-carboxamide monomer; Pht = N-((2S,3R)-1,3-dihydroxybutan-2-yl)-2-phenylquinoline-4-carboxamide monomer; code p = not defined here; Agt = not defined here
Kindly state Tm(° C.) for each of the entries shown.
One number for each entry, in °C.

* TTCCGGAA-p-Qut: oligonucleotide 5′-TTCCGGAA-3′ carrying fluorophore Qut at the 3′-end (DNA TTCCGGAA-{code p-Qut}; not fully specified; cysteine pairing not given here; reading uncertain; also: DNA oligonucleotide with 3'-phosphate-linked Qut) | 44

Give measured Tm(° C.) for every item shown.
1. TTCCGGAA-p-Agt: oligonucleotide 5′-TTCCGGAA-3′ carrying fluorophore Agt at the 3′-end (DNA TTCCGGAA-{code p-Agt}; not fully specified; cysteine pairing not given here; reading uncertain; also: DNA oligonucleotide with 3'-phosphate-linked Agt)
2. TTCCGGAA-p-Pht: oligonucleotide 5′-TTCCGGAA-3′ carrying fluorophore Pht at the 3′-end (DNA TTCCGGAA-{code p-Pht}; not fully specified; cysteine pairing not given here; reading uncertain; also: DNA oligonucleotide with 3'-phosphate-linked Pht)

Marked response:
47
41

* * *

# experimental_details: Fluorescent properties of duplexes carrying fluorophores at the 3′-end
# Assay type: physicochemical
# details: oligonucleotide duplex carrying fluorophore at the 3′-end
Ends that are not written are not given here. Nct = N-((2S,3R)-1,3-dihydroxybutan-2-yl)-(4a,10a-dihydro-10,11-diazabenzo[b]fluoren-10-yl)acetamide monomer; Qut = N-(1,3-dihydroxybutan-2-yl)-10H-indolo[3,2-d]quinoline-11-carboxamide monomer; Pht = N-((2S,3R)-1,3-dihydroxybutan-2-yl)-2-phenylquinoline-4-carboxamide monomer; Act = N-(1,3-dihydroxybutan-2-yl)acridine-9-carboxamide monomer; code p = not defined here; Qgt = not defined here
Kindly state Excitation (nm) for each of the entries shown.
Give bare numbers, in nm.

Examples from the recorded data:
- TTCCGGAA-p-Act-p-Qut-p-Qut: oligonucleotide 5′-TTCCGGAA-3′ carrying trimer Act-p-Qut-p-Qut at the 3′-end (DNA TTCCGGAA-{code p-Act-code p-Qut-code p-Qut}; not fully specified; cysteine pairing not given here; reading uncertain; also: DNA oligonucleotide with 3'-Act-p-Qut-p-Qut trimer): 352
- TTCCGGAA-p-Qut-p-Qut: oligonucleotide 5′-TTCCGGAA-3′ carrying dimer Qut-p-Qut at the 3′-end (DNA TTCCGGAA-{code p-Qut-code p-Qut}; not fully specified; cysteine pairing not given here; reading uncertain; also: DNA oligonucleotide with 3'-Qut-p-Qut dimer): 349
- TTCCGGAA-p-Qgt: oligonucleotide 5′-TTCCGGAA-3′ carrying fluorophore Qgt at the 3′-end (DNA TTCCGGAA-{code p-Qgt}; not fully specified; cysteine pairing not given here; reading uncertain; also: DNA oligonucleotide with 3'-phosphate-linked Qgt): 350

Give measured Excitation (nm) for every item shown.
1. TTCCGGAA-p-Qut: oligonucleotide 5′-TTCCGGAA-3′ carrying fluorophore Qut at the 3′-end (DNA TTCCGGAA-{code p-Qut}; not fully specified; cysteine pairing not given here; reading uncertain; also: DNA oligonucleotide with 3'-phosphate-linked Qut)
2. TTCCGGAA-p-Act-p-Qut: oligonucleotide 5′-TTCCGGAA-3′ carrying dimer Act-p-Qut at the 3′-end (DNA TTCCGGAA-{code p-Act-code p-Qut}; not fully specified; cysteine pairing not given here; reading uncertain; also: DNA oligonucleotide with 3'-Act-p-Qut dimer)
3. TTCCGGAA-p-Nct: oligonucleotide 5′-TTCCGGAA-3′ carrying fluorophore Nct at the 3′-end (DNA TTCCGGAA-{code p-Nct}; not fully specified; cysteine pairing not given here; reading uncertain; also: DNA oligonucleotide with 3'-phosphate-linked Nct)
4. TTCCGGAA-p-Act-p-Pht: oligonucleotide 5′-TTCCGGAA-3′ carrying dimer Act-p-Pht at the 3′-end (DNA TTCCGGAA-{code p-Act-code p-Pht}; not fully specified; cysteine pairing not given here; reading uncertain; also: DNA oligonucleotide with 3'-Act-p-Pht dimer)

Marked response:
[349, 351, 267, 336]

* * *

Kindly state Tm(° C.) for each of the entries shown.
# Test system: duplex structure of DNA
# experimental_details: Melting experiments (DNA-duplex stabilization)
# Format: physicochemical
# details: 1 M NaCl, 10 mM sodium phosphate buffer of pH=7; 260 nm; 1° C./min
Ends that are not written are not given here. Nct = N-((2S,3R)-1,3-dihydroxybutan-2-yl)-(4a,10a-dihydro-10,11-diazabenzo[b]fluoren-10-yl)acetamide monomer; Qut = N-(1,3-dihydroxybutan-2-yl)-10H-indolo[3,2-d]quinoline-11-carboxamide monomer; Pht = N-((2S,3R)-1,3-dihydroxybutan-2-yl)-2-phenylquinoline-4-carboxamide monomer; Act = N-(1,3-dihydroxybutan-2-yl)acridine-9-carboxamide monomer; code p = not defined here
Give bare numbers, in °C.

Examples from the recorded data:
• TTCCGGAA-p-Nct: oligonucleotide 5′-TTCCGGAA-3′ carrying fluorophore Nct at the 3′-end (DNA TTCCGGAA-{code p-Nct}; not fully specified; cysteine pairing not given here; reading uncertain; also: DNA oligonucleotide with 3'-phosphate-linked Nct) = 46
• TTCCGGAA-p-Act-p-Pht: oligonucleotide 5′-TTCCGGAA-3′ carrying dimer Act-p-Pht at the 3′-end (DNA TTCCGGAA-{code p-Act-code p-Pht}; not fully specified; cysteine pairing not given here; reading uncertain; also: DNA oligonucleotide with 3'-Act-p-Pht dimer) = 43

Exam item: Report Tm(° C.) for TTCCGGAA-p-Qut-p-Qut: oligonucleotide 5′-TTCCGGAA-3′ carrying dimer Qut-p-Qut at the 3′-end (DNA TTCCGGAA-{code p-Qut-code p-Qut}; not fully specified; cysteine pairing not given here; reading uncertain; also: DNA oligonucleotide with 3'-Qut-p-Qut dimer) please.
Marked response: 48

* * *

Kindly state Fluorescence emission (nm) for each of the entries shown.
# experimental_details: Fluorescence properties of the new compounds (excitation and emission wavelengths)
# Assay type: physicochemical
# details: free compound
Give bare numbers, in nm.

- CC(O)C(COP(=O)(O)OC(C)C(COP(=O)(O)OC(C)C(COP(=O)(O)OC(C)C(COP(=O)(O)OC(C)C(COP(=O)(O)OC(C)C(CO)NC(=O)c1c2ccccc2nc2ccccc12)NC(=O)c1c2ccccc2nc2ccccc12)NC(=O)c1c2ccccc2nc2ccccc12)NC(=O)c1c2ccccc2nc2ccccc12)NC(=O)c1c2ccccc2nc2ccccc12)NC(=O)c1c2ccccc2nc2ccccc12 (centres unmarked): 438
- CC(=O)NC1CC(C(=O)NC2CC(C(N)=O)N(C(=O)CNC(=O)c3c4ccccc4nc4ccccc34)C2)N(C(=O)CNC(=O)c2c3ccccc3nc3c2[nH]c2ccccc23)C1 (centres unmarked): 498
- NC(=O)CCCOP(=O)(O)O[C@H](CNc1c2ccccc2nc2ccccc12)COP(=O)(O)O[C@@H](CO)CNc1c2ccccc2nc2ccccc12: 440
- CC(=O)NC1CC(C(N)=O)N(C(=O)CNC(=O)c2c3ccccc3nc3ccccc23)C1 (centres unmarked): 439

Exam item: Report Fluorescence emission (nm) for CC(=O)NCCN(CC(=O)NCCN(CC(=O)NCCN(CC(=O)NCCCCCCO)C(=O)CNC(=O)c1c2ccccc2nc2ccccc12)C(=O)CNC(=O)c1c2ccccc2nc2ccccc12)C(=O)CNC(=O)c1c2ccccc2nc2ccccc12 please.
Marked response: 436

* * *

Kindly state Fluorescence emission (nm) for each of the entries shown.
# experimental_details: Fluorescence properties of the new compounds (excitation and emission wavelengths)
# Format: physicochemical
# details: free compound
One number for each entry, in nm.

- CC(OP(O)(=S)OC[C@@H](O)CNc1c2nc3ccccc3c-2n(C)c2ccccc12)C(CO)NC(=O)c1c2ccccc2nc2ccccc12 (stereo partly drawn): 448

Give measured Fluorescence emission (nm) for every item shown.
1. CC(O)C(CO)NC(=O)c1c2ccccc2nc2c1[nH]c1ccccc12 (stereo not drawn)
2. CC(=O)NC1CC(C(=O)NC2CC(C(=O)NC3CC(C(=O)NC4CC(C(=O)NC5CC(C(N)=O)N(C(=O)CNC(=O)c6cc(-c7ccccc7)nc7ccccc67)C5)N(C(C)=O)C4)N(C(=O)CNC(=O)c4c5ccccc5nc5ccccc45)C3)N(C(C)=O)C2)N(C(=O)CNC(=O)c2c3ccccc3nc3c2[nH]c2ccccc23)C1 (stereo not drawn)
3. CC(=O)NC1CC(C(=O)NC2CC(C(=O)NC3CC(C(N)=O)N(C(=O)CNC(=O)c4c5ccccc5nc5c4[nH]c4ccccc45)C3)N(C(=O)CNC(=O)c3c4ccccc4nc4c3[nH]c3ccccc34)C2)N(C(=O)CNC(=O)c2c3ccccc3nc3c2[nH]c2ccccc23)C1 (stereo not drawn)
4. CC(O)C(COP(=O)(O)OC(C)C(CO)NC(=O)c1c2ccccc2nc2ccccc12)NC(=O)c1cc(-c2ccccc2)nc2ccccc12 (stereo not drawn)
5. CC(O)C(COP(=O)(O)OC(C)C(CO)NC(=O)c1cc(-c2ccccc2)nc2ccccc12)NC(=O)c1c2ccccc2nc2ccccc12 (stereo not drawn)

Marked response:
402
488
505
403
437
